Assignment: determine reported protein stability index for the given variants.
B1: IKZF1 (parent)
chain: YHSQDRYEFSSHITRGEHRFHMS

variants of: B1; assay: protein stability index of a GFP-peptide fusion (GPS, HEK-293T) (PSI 1-6); higher = more stable; conditions: c terminus: native;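 also: lentivirally expressed fusions sorted by FACS into six bins by GFP to DsRed ratio, PSI derived from sequencing read proportions per bin multiplied by bin number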
Form rule: numeric answer, no unit written next to it.

Supply reported protein stability index belonging to this variant: YHSQDRYQFSSHITRGEHRFHMS [E8Q] 2.17

Supply reported protein stability index belonging to this variant: YHSQPRYEFSSHITRGEHRFHMS [D5P] 2.04

Supply reported protein stability index belonging to this variant: YHSQDRYEFSSHITRGHHRFHMS [E17H] 1.99
